Recorded melting point, one value per entry.

Consider the worked cases shown below.
substanceSmiles: O=c1oc2cnc3ccc(-c4cccs4)cc3c2n1-c1cccc(C(F)(F)F)c1
melting point: 272 to 274 °C
//
substanceSmiles: CC(=O)/C=C/c1cnc2ccc(-c3ccc(F)c(F)c3)cc2c1Nc1cccc(C(F)(F)F)c1
melting point: 210 to 213 °C
//
substanceSmiles: NC(=O)NC/C=C/c1ccc2ncc3ccc(=O)n(-c4cccc(C(F)(F)F)c4)c3c2c1
melting point: 150 to 151 °C
//
substanceSmiles: CC(=O)/C=C/c1cnc2ccc(-c3ccc(Cl)cc3)cc2c1Nc1cccc(C(F)(F)F)c1
melting point: 197 to 199 °C
//
substanceSmiles: COc1cc(-c2ccc3ncc4ccc(=O)n(-c5cccc(C(F)(F)F)c5)c4c3c2)cnc1N
melting point: 233 to 234 °C

q: Name the reported melting point value associated with the compound COc1cncc(-c2ccc3ncc(/C=C/C(C)=O)c(Nc4cccc(C(F)(F)F)c4)c3c2)c1
a: 164 to 167 °C

q: Name the reported melting point value associated with the compound CCOc1ccc(-c2ccc3ncc4oc(=O)n(-c5cccc(C(F)(F)F)c5)c4c3c2)cc1
a: 254 °C

q: Name the reported melting point value associated with the compound CC(=O)/C=C/c1cnc2ccc(-c3ccc(C(C)C)cc3)cc2c1Nc1cccc(C(F)(F)F)c1
a: 143 to 144 °C

q: Name the reported melting point value associated with the compound CCOC(=O)/C=C/c1ccc2ncc3oc(=O)n(-c4cccc(C(F)(F)F)c4)c3c2c1
a: 221 to 224 °C

q: Name the reported melting point value associated with the compound CCOc1cccc(-c2ccc3ncc(/C=C/C(C)=O)c(Nc4cccc(C(F)(F)F)c4)c3c2)c1
a: 184 to 185 °C

q: Name the reported melting point value associated with the compound O=c1oc2cnc3ccc(-c4ccoc4)cc3c2n1-c1cccc(C(F)(F)F)c1
a: 276 to 277 °C

q: Name the reported melting point value associated with the compound CCOC(=O)CC/C=C/c1ccc2ncc3oc(=O)n(-c4cccc(C(F)(F)F)c4)c3c2c1
a: 162 to 164 °C

q: Name the reported melting point value associated with the compound N#CC/C=C/c1ccc2ncc3oc(=O)n(-c4cccc(C(F)(F)F)c4)c3c2c1
a: 177 to 179 °C

q: Name the reported melting point value associated with the compound Nc1ccc(-c2ccc3ncc4oc(=O)n(-c5cccc(C(F)(F)F)c5)c4c3c2)cn1
a: 146 to 147 °C

q: Name the reported melting point value associated with the compound CC(C)(C)OC(=O)/C=C/c1ccc2ncc3oc(=O)n(-c4cccc(C(F)(F)F)c4)c3c2c1
a: 186 to 187 °C

* * *

Recorded TD50, one value per entry.
system: RD cells; experiment: Detection of cytotoxicity in RD cells (CellTiter-Glo); type: cell-based; conditions: 4 days, CellTiter-Glo, median toxic dose

compound: CCCc1ccc(-c2ccc3ncc4oc(=O)n(-c5cccc(C(F)(F)F)c5)c4c3c2)cc1 [HTL-5-34]
TD50: >200 µM
//
compound: O=c1oc2cnc3ccc(-c4ccc(F)nc4)cc3c2n1-c1cccc(C(F)(F)F)c1 [HTL-5-28]
TD50: >200 µM

We next turn to a different compound, shown below.
q: RD cells / TD50 / O=c1oc2cnc3ccc(-c4ccc(C(F)(F)F)cc4)cc3c2n1-c1cccc(C(F)(F)F)c1 [HTL-5-29] : value?
a: >200 µM

* * *

Recorded IC50, one value per entry.
biological target: mTOR kinase (Homo sapiens); construct: purchased Thermo Fisher PV4753; test: In vitro inhibitory activity on mTOR kinase (TR-FRET, GFP-4E-BP1 substrate); format: biochemical; conditions: 0.5 μg/mL mTOR, 0.4 μM GFP-4E-BP1, 3 μM ATP
Sequence (P42345 1360-2549 limits assumed): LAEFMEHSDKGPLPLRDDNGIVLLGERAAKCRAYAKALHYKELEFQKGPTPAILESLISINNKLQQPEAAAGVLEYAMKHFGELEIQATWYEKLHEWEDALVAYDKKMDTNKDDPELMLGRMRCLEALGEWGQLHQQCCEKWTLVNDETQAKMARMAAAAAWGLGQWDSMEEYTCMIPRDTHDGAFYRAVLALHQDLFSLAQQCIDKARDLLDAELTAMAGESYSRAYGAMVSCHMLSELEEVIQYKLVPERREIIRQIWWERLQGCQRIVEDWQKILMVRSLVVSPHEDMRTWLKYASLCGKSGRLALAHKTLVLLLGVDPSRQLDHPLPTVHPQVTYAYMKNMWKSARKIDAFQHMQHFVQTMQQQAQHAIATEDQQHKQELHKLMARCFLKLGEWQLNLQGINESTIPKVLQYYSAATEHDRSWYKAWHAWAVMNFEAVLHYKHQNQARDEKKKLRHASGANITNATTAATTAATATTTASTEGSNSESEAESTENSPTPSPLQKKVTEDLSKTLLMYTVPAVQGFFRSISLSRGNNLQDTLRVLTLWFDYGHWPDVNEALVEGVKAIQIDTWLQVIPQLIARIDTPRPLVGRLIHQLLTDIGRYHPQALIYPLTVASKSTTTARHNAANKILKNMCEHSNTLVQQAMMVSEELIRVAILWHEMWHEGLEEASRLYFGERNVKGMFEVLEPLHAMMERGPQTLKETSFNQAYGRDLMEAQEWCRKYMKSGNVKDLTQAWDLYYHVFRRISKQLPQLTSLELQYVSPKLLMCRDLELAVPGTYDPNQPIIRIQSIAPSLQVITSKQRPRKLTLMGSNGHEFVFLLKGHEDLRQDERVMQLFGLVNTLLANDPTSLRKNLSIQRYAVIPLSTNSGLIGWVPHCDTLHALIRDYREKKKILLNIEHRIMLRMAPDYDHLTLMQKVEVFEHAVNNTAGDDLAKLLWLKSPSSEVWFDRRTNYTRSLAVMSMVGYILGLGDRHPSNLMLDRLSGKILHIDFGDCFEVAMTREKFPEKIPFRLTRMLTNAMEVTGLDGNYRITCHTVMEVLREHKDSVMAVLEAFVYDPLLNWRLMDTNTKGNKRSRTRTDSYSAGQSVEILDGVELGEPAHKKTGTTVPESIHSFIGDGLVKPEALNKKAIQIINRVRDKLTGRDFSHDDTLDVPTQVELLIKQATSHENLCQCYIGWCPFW
State just the number; it will be interpreted in nM.

Consider the worked cases shown below.
substanceSmiles: CC(=O)/C=C/c1cnc2ccc(-c3ccc(C)nc3)cc2c1Nc1cccc(C(F)(F)F)c1
valueUnits: nM
experimentalValue: 1010

substanceSmiles: CC(=O)/C=C/c1cnc2ccc(-c3ccc(N)cc3)cc2c1Nc1cccc(C(F)(F)F)c1
valueUnits: nM
experimentalValue: 7770

We next turn to a different compound, shown below.
q: Name the reported IC50 value associated with the compound Cc1ncccc1-c1ccc2ncc3ccc(=O)n(-c4cccc(C(F)(F)F)c4)c3c2c1
a: 11.9

* * *

Recorded melting point, one value per entry.

Consider the worked cases shown below.
substanceSmiles: CCCc1ccc(-c2ccc3ncc(/C=C/C(C)=O)c(Nc4cccc(C(F)(F)F)c4)c3c2)cc1
melting point: 166 to 169 °C
--
substanceSmiles: O=c1ccc2cnc3ccc(Nc4ccc(Cl)cc4)cc3c2n1-c1cccc(C(F)(F)F)c1
melting point: 212 to 213 °C
--
substanceSmiles: COc1ccc(CC(=O)Nc2ccc(-c3ccc4ncc5ccc(=O)n(-c6cccc(C(F)(F)F)c6)c5c4c3)cn2)cc1
melting point: 241 to 243 °C

q: Name the reported melting point value associated with the compound O=C(Nc1ccc(-c2ccc3ncc4oc(=O)n(-c5cccc(C(F)(F)F)c5)c4c3c2)cn1)OCc1ccccc1
a: 284 to 286 °C

q: Name the reported melting point value associated with the compound Nc1cncc(Nc2ccc3ncc4ccc(=O)n(-c5cccc(C(F)(F)F)c5)c4c3c2)n1
a: 192 to 194 °C

q: Name the reported melting point value associated with the compound CC(=O)/C=C/c1cnc2ccc(-c3cncc(C#N)c3)cc2c1Nc1cccc(C(F)(F)F)c1
a: 227 to 229 °C

q: Name the reported melting point value associated with the compound CC(=O)/C=C/c1cnc2ccc(-c3ccc(F)cc3F)cc2c1Nc1cccc(C(F)(F)F)c1
a: 162 to 164 °C

* * *

Recorded melting point, one value per entry.

substanceSmiles: O=c1oc2cnc3ccc(-c4ccc(C(F)(F)F)cc4)cc3c2n1-c1cccc(C(F)(F)F)c1
experimentalValue: 265 to 266 °C
//
substanceSmiles: C#CCNc1ccc(-c2ccc3ncc4ccc(=O)n(-c5cccc(C(F)(F)F)c5)c4c3c2)cn1
experimentalValue: 139 to 141 °C
//
substanceSmiles: O=c1oc2cnc3ccc(-c4ccc(Cl)cc4)cc3c2n1-c1cccc(C(F)(F)F)c1
experimentalValue: 283 to 286 °C

q: Name the reported melting point value associated with the compound O=c1ccc2cnc3ccc(-c4ccc5ncccc5c4)cc3c2n1-c1cccc(C(F)(F)F)c1
a: 196 to 197 °C
